Consider the following compounds and their measured pIC50 readings.
Target under test: Beta Secretase enzyme (BACE) (Homo sapiens, UniProt P56817)
Sequence (P56817 46-501): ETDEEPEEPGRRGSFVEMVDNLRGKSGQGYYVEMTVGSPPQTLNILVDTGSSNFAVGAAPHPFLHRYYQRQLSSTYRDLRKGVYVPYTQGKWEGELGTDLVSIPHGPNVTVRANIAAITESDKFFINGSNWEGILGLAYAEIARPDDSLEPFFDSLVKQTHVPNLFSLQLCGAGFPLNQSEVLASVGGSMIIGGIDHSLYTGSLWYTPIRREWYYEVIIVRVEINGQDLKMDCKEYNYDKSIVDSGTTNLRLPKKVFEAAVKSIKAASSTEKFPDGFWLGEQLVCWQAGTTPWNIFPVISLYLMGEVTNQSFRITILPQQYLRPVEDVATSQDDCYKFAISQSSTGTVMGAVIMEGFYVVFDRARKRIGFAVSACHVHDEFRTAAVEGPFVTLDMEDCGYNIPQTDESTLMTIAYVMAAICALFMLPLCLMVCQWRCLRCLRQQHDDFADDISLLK
Run description: In vitro enzymatic BACE FRET assay
Format: biochemical
Measurement conditions: average IC50; read-out: BACE1 FRET assay IC50
Experimental: In Vitro Enzymatic BACE FRET (Fluorescence Resonance Energy Transfer) Assay (Enzyme Assay Data in the Example Table I) The assay buffer used in this screen is 0.05 M acetate, pH 4.2, 10% DMSO final, 100 uM genapol (which is a nonionic detergent, below its Critical Micelle Concentration). […] The FRET assay is terminated with by addition of Tris buffer, which raises the pH to neutrality, and the fluorescence is determined. […]
The meaning of pIC50 here: minus log10 of the concentration in molar units.

Please review the following examples before continuing.
>>> value_measured("CC#CCOc1cnc2c(Nc3ccc4c(c3)C3(C)N=C(N)C(C)(C)S(=O)(=O)C3CCO4)nccc2c1 (stereo not shown)")
8.52
>>> value_measured("Cc1cc(Cl)cnc1C(=O)Nc1cnc2c(c1)[C@@]1(C)N=C(N)C3(CCC3)S(=O)(=O)[C@@H]1CCO2")
7.30
>>> value_measured("Cc1cc(C#N)cnc1C(=O)Nc1ccc2c(c1)[C@@]1(C)N=C(N)C(C)(C)S(=O)(=O)[C@@H]1CCC2")
8.52

# get_value(readout='pIC50', item= Cc1c(C(=O)Nc2ccc3c(c2)[C@@]2(C)N=C(N)C(C)(C)S(=O)(=O)[C@@H]2C[C@H](C)O3)nc2ccc(Cl)cn12 )
7.77

# get_value(readout='pIC50', item= COc1cccnc1Nc1ccc2c(c1)[C@@]1(C)N=C(N)C(C)(C)S(=O)(=O)[C@@H]1CCO2 )
7.03

# get_value(readout='pIC50', item= C[C@H]1C[C@@H]2[C@](C)(N=C(N)C(C)(C)S2(=O)=O)c2cc(NC(=O)c3ncc(C(F)(F)F)cc3Cl)ccc2O1 )
7.96

# get_value(readout='pIC50', item= Cc1cc(Cl)cnc1C(=O)Nc1ccc2c(c1)[C@]1(C)N=C(N)C(C)(C)S(=O)(=O)[C@H]1CCO2 (racemic) [Example 4] )
8.40

# get_value(readout='pIC50', item= Cc1cc(OCC2CC2)cnc1C(=O)Nc1ccc2c(c1)[C@@]1(C)N=C(N)C(C)(C)S(=O)(=O)[C@@H]1CCO2 )
7.85

# get_value(readout='pIC50', item= CC1(C)C(N)=N[C@]2(C)c3cc(Nc4nccc5cc(C#N)cnc45)ccc3CCC[C@H]2S1(=O)=O )
8.10

# get_value(readout='pIC50', item= Cc1cc(C(F)(F)F)cnc1C(=O)Nc1ccc2c(c1)[C@@]1(C)N=C(N)C(C)(C)S(=O)(=O)[C@@H]1CCO2 )
8.10
